- Tested on: Human immunodeficiency virus 1
- protocol summary: Whole cell antiviral activity.
- Format: functional
Recorded IC90 for the following molecules
# number only, unit nM dropped from output

[
  {
    "smiles notation": "COc1ccc(C[C@@H]2[C@H](O)[C@@H](O)[C@@H](Cc3ccc(OC)cc3)N(Cc3cccc(-c4cc[nH]n4)c3)C(=O)N2Cc2cccc(-c3cc[nH]n3)c2)cc1",
    "measurement kind": "IC90",
    "observed result": 10
  },
  {
    "smiles notation": "O=C1N(Cc2cccc(-c3cc[nH]n3)c2)[C@H](Cc2ccc(OCc3cccnc3)cc2)[C@H](O)[C@@H](O)[C@@H](Cc2ccc(OCc3cccnc3)cc2)N1Cc1cccc(-c2cc[nH]n2)c1",
    "measurement kind": "IC90",
    "observed result": 32
  }
]

Read the next record carefully.
Request: I'd like to know its IC90. The molecule in question is O=C1N(Cc2ccccc2)[C@H](Cc2ccc(OCCN3CCOCC3)cc2)[C@H](O)[C@@H](O)[C@@H](Cc2ccc(OCCN3CCOCC3)cc2)N1Cc1ccccc1
Result: 230
